Attribution: ChEMBL document CHEMBL4811309

Test system: HT-29
Experiment: Antiproliferative activity against human HT-29 cells assessed as reduction in cell viability by MTT assay
Format: functional, cell-based
Experimental readout: IC50

>>> df
                               line_notation  observed_measurement
 0  CC(C)Nc1nc(Nc2ccc(N3CCOCC3)cc2)ncc1/N=C/c1ccccc1              > 100 µM
 1  CC(C)Nc1nc(Nc2ccc(S(N)(=O)=O)cc2)ncc1/N=C/c1cccs1              > 100 µM
 2  FC(F)(F)c1ccc(/C=N/c2cnc(Nc3ccc(N4CCOCC4)cc3)nc2NC2CCCC2)cc1              > 100 µM
 3  CCOC(=O)/C=N/c1cnc(Nc2ccc(S(N)(=O)=O)cc2)nc1NC1CC1              > 100 µM
 4  CC(C)Nc1nc(Nc2ccc(N3CCOCC3)cc2)ncc1/N=C/c1ccc(C(F)(F)F)cc1              > 100 µM
 5  CC(C)Nc1nc(Nc2ccc(N3CCN(C)CC3)cc2)ncc1/N=C/c1cccs1              > 100 µM
 6  CC(C)Nc1nc(Nc2ccc(N3CCN(C)CC3)cc2)ncc1/N=C/c1ccc(C(F)(F)F)cc1              > 100 µM
 7  NS(=O)(=O)c1ccc(Nc2ncc(/N=C/c3ccc(C(F)(F)F)cc3)c(NC3CCCC3)n2)cc1              > 100 µM
 8  CC(C)Nc1nc(Nc2ccc(N3CCOCC3)cc2)ncc1/N=C/c1cccs1               25.3 µM
 9  C(=N\c1cnc(Nc2ccc(N3CCOCC3)cc2)nc1NC1CCCC1)/c1ccccc1               67.6 µM
10  CN1CCN(c2ccc(Nc3ncc(/N=C/c4ccccc4)c(NC4CCCC4)n3)cc2)CC1               28.6 µM
11  C(=N\c1cnc(Nc2ccc(N3CCOCC3)cc2)nc1NC1CCCC1)/c1cccs1               20.8 µM
12  CCOC(=O)/C=N/c1cnc(Nc2ccc(N3CCN(C)CC3)cc2)nc1NC1CCCC1               15.1 µM
